- measurement.target: human GPR84 (Homo sapiens, UniProt Q9NQS5)
- Sequence (Q9NQS5 whole entry): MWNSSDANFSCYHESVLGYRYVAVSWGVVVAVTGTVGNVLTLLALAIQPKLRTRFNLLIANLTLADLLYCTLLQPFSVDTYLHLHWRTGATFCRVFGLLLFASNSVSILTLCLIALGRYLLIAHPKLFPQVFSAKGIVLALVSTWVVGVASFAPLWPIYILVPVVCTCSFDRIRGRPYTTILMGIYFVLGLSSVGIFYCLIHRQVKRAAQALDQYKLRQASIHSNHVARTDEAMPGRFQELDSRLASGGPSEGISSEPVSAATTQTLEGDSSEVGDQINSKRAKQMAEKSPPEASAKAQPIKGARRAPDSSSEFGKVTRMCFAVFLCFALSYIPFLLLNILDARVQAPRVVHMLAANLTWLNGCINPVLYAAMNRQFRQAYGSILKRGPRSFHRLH
- protocol.details: cell-based
- Type: cell-based
- test.context: read-out: efficacy (Emax), cAMP assay
readout.label: Emax (%)

| structure.notation | Emax (%) |
| --- | --- |
| O=c1cc(NCCc2ccc(Cl)cc2)[nH]c(=O)[nH]1 | 137 |
| CCc1ccc(CCNc2cc(=O)[nH]c(=O)[nH]2)cc1 | 136 |
| CCCCCCCCCNc1cc(=O)[nH]c(=O)[nH]1 | 118 |

###

- measurement.target: UniProtKB Q9NQS5
- protocol.details: cell-based
- Format: cell-based
- test.context: read-out: efficacy (Emax), cAMP assay
readout.label: Emax (%)

Here's what some known entries look like.
| structure.notation | measurement.target | observed |
| --- | --- | --- |
| CCCCCCCCNc1cc(=O)[nH]c(=O)[nH]1 | UniProtKB Q9NQS5 | 104 |
| O=c1[nH]c(NCCc2ccc(Br)cc2)c(Br)c(=O)[nH]1 | UniProtKB Q9NQS5 | 114 |
| CCCCCCCNc1[nH]c(=O)[nH]c(=O)c1N=O | UniProtKB Q9NQS5 | 104 |
| O=c1cc(NCCc2ccc(Br)cc2)[nH]c(=O)[nH]1 | UniProtKB Q9NQS5 | 127 |
| O=c1cc(NCCCOc2ccccc2)[nH]c(=O)[nH]1 | UniProtKB Q9NQS5 | 107 |

[I] O=c1cc(NCCc2cccc(Cl)c2)[nH]c(=O)[nH]1
[II] CCCCCCCCCNc1cc(=O)n(C)c(=O)[nH]1
Task: Form field 'greater Emax' accepts I or II ; which applies? Answer by stating the label of the chosen item.
Output: I
(I: 125%, II: 74%)

Cited source: paper PMC6044507
